System: TOV-21G (Ovarian Carcinoma)
assay comment: Bliss excess, mean over the matrix (fraction); higher = more synergy
assay endpoint: Bliss excess

CCN(CCO)CCCOc1ccc2c(Nc3cc(CC(=O)Nc4cccc(F)c4)[nH]n3)ncnc2c1 [AZD2811] + C[C@@H]1COCCN1C2=NC(=NC(=C2)C3(CC3)[S@](=N)(=O)C)C4=C5C=CNC5=NC=C4 [AZD6738] (first compound max 1 µM, 7x7, partner max 10 µM) :: -0.0548
Cc1cc2ncnn2cc1Nc1ncc2c(n1)n(C1CCOCC1)c(=O)n2C [AZD7648] + O=C(c1cc(Cc2n[nH]c(=O)c3ccccc23)ccc1F)N1CCN(C(=O)C2CC2)CC1 [Olaparib] (first compound max 10 µM, 7x7, partner max 10 µM) :: -0.0363
COc1cccc(OCCCN)c1-c1cc(Nc2cnc(C#N)cn2)n[nH]1 [Prexasertib] + C=CCn1c(=O)c2cnc(Nc3ccc(N4CCN(C)CC4)cc3)nc2n1-c1cccc(C(C)(C)O)n1 [AZD1775] (first compound max 1 µM, partner max 1 µM) :: -0.0089
NC1(C(=O)N[C@@H](CCO)c2ccc(Cl)cc2)CCN(c2ncnc3[nH]ccc23)CC1 [Capivasertib] + CC(C)n1c(=O)n(C)c2cnc3cc(F)c(-c4ccc(OCCCN5CCCCC5)nc4)cc3c21 [AZD1390] (first compound max 10 µM, 7x7, partner max 0.3 µM) :: -0.0076

* * *

Tested on: HT-1197 (Bladder Carcinoma)
assay comment: combination Emax (second highest fraction inhibited in the dose matrix, 72 h); higher = more inhibition; extreme values may be limits of the assay
assay endpoint: combination Emax

Cc1c2c(nn1C)CSCc1cc(n(C)n1)CSc1cc(c3ccccc3c1)OCCCc1c(C(=O)O)n(C)c3c-2c(Cl)ccc13 [AZD5991] + C[C@@H]1COCCN1C2=NC(=NC(=C2)C3(CC3)[S@](=N)(=O)C)C4=C5C=CNC5=NC=C4 [AZD6738] (first compound max 1 µM, 7x7, partner max 10 µM) :: 0.466
CN(CCO)CC[C@H](CSc1ccccc1)Nc1ccc(S(=O)(=O)NC(=O)c2ccc(N3CCC([C@@H](O)c4ccccc4-c4ccc(Cl)cc4)CC3)cc2)cc1S(=O)(=O)C(F)(F)F [AZD4320] + CN(C)CCCOc1ccc(-c2ccc3ncc4c(c3c2)n(C2CCOCC2)c(=O)n4C)cn1 [AZD0156] (first compound max 1 µM, 7x7, partner max 1 µM) :: 0.142
CC(=O)c1c(C)c2cnc(Nc3ccc(N4CCNCC4)cn3)nc2n(C2CCCC2)c1=O [Palbociclib] + CN(CC[C@H](CSC1=CC=CC=C1)NC2=C(C=C(C=C2)S(=O)(=O)NC(=O)C3=CC=C(C=C3)N4CCC(CC4)[C@H](C5=CC=CC=C5C6=CC=C(C=C6)Cl)O)S(=O)(=O)C(F)(F)F)CCO [AZD4320] (first compound max 10 µM, 7x7, partner max 1 µM) :: 0.338

* * *

Tested on: SBC-5 (Small Cell Lung Carcinoma)
assay comment: Bliss excess, mean over the matrix (fraction); higher = more synergy
Below, each entry is listed with its recorded Bliss excess.
assay endpoint: Bliss excess

CS(=O)(=O)CCNCc1ccc(-c2ccc3ncnc(Nc4ccc(OCc5cccc(F)c5)c(Cl)c4)c3c2)o1 [Lapatinib] + NC1(c2ccc(-c3nc4ccn5c(=O)[nH]nc5c4cc3-c3ccccc3)cc2)CCC1 [MK-2206] (first compound max 10 µM, 7x7, partner max 10 µM) :: -0.0051
COc1cccc(OCCCN)c1-c1cc(Nc2cnc(C#N)cn2)n[nH]1 [Prexasertib] + CCc1c2c(nc3ccc(O)cc13)-c1cc3c(c(=O)n1C2)COC(=O)[C@]3(O)CC [SN-38] (first compound max 1 µM, 7x7, partner max 0.3 µM) :: 0.0007
CC(=O)Nc1cccc(-n2c(=O)n(C3CC3)c(=O)c3c(Nc4ccc(I)cc4F)n(C)c(=O)c(C)c32)c1 [Trametinib] + Cc1nc(-c2cn3c(n2)-c2ccc(-c4cnn(C(C)(C)C(N)=O)c4)cc2OCC3)n(C(C)C)n1 [Taselisib] (first compound max 1 µM, 7x7, partner max 10 µM) :: 0.192
Cc1c2c(nn1C)CSCc1cc(n(C)n1)CSc1cc(c3ccccc3c1)OCCCc1c(C(=O)O)n(C)c3c-2c(Cl)ccc13 [AZD5991] + C[C@@H]1COCCN1C2=NC(=NC(=C2)C3(CC3)[S@](=N)(=O)C)C4=C5C=CNC5=NC=C4 [AZD6738] (first compound max 1 µM, 7x7, partner max 10 µM) :: 0.0509
